Test system: Raji
Assay notes: Inhibition of proliferation of Human B Lymphoblast (Raji) cells was measured
Assay type: functional
Study conditions: read-out: ID50 (the source's name)
Listed compounds paired with reported IC50
Unit µg/mL implied. Number only.

As a guide, the following entries are already answered.
- Mol smiles: "Cl.Cl.Cn1cc(NC(=O)c2cc(NC(=O)c3cc(NC=O)cn3C)cn2C)cc1C(=O)NCCC(=N)N"
  Display unit: "µg/mL"
  IC50: 23.7
- Mol smiles: "CC[N+](CC)(CC)CC.Cn1cc(NC(=O)c2cc(NC(=O)C(Cl)Cl)cn2C)cc1C(=O)NCCC(=N)N.O=S(=O)([O-])O"
  Display unit: "µg/mL"
  IC50: 24.1

Kindly consider the entry below.
Sample `Cl.Cn1cc(NC(=O)c2cc(NC(=O)CF)cn2C)cc1C(=O)NCCC(=N)N` ; IC50 observed: 33.1

Numbers sourced from ChEMBL document CHEMBL1124029.
